Here the recorded Kd is given for each entry.
biological target: Skp1-FBXW7 complex (human FBXW7 residues 263-707 with truncated Skp1, His6 tag cleaved) (UniProt Q969H0); test: ITC; 25 °C, NANO ITC System; 20 mM HEPES-Na (pH 7.4), 200 mM NaCl, 2 mM β-mercaptoethanol; Skp1-FBXW7 and DISC1 peptides typically 50 mM and 1 mM (so in the source); two to three independent measurements
Non-standard residues stand in square brackets, D forms with d. No end group written: not given here. pT = C[C@@H](OP(=O)(O)O)[C@H](N)C(=O)O; pS = N[C@@H](COP(=O)(O)O)C(=O)O
Your answer should be a plain number; it is taken to be in µM.

Kd for P[pT]PPG[pS]H [DISC1 peptide (residues 197-203, phosphorylated at Thr198 and Ser202)] is 17

Kd for PEVPP[pT]PPG[pS]HSAFT (peptide, UniProt Q9NRI5 193-207, looked up, printed residues: Pro193, Glu194, Val195, Pro196, Pro197, Thr198, Pro199, Pro200, Gly201, Ser202, His203; also called 15-residue core peptide; source: synthetic peptide, purified by HPLC) [DISC1 peptide (residues 193-207, phosphorylated at Thr198 and Ser202)] is 1
